# experimental target: equine FcRn (large alpha subunit p51) / equine beta-2-microglobulin complex, biotinylated (equine) (UniProt P30441)
# experimental details: SPR (Biacore), pH 6
metric: Kd (nM)
One number for each entry, in nM.

Solved cases below.
1. equine IgG1 G426H (antibody, part only; not given: variable domains, not shown: another chain or arm of the molecule) constant: ASTTAPKVFALAPGCGTTSDSTVALGCLVSGYFPEPVKVSWNSGSLTSGVHTFPSVLQSSGFYSLSSMVTVPASTWTSETYICNVVHAASNFKVDKRIEPIPDNHQKVCDMSKCPKCPAPELLGGPSVFIFPPNPKDTLMITRTPEVTCVVVDVSQENPDVKFNWYMDGVEVRTATTRPKEEQFNSTYRVVSVLRIQHQDWLSGKEFKCKVNNQALPQPIERTITKTKGRSQEPQVYVLAPHPDELSKSKVSVTCLVKDFYPPEINIEWQSNGQPELETKYSTTQAQQDSDGSYFLYSKLSVDRNRWQQGTTFTCHVMHEALHNHYTQKNVSKNPGK | 12.8
2. equine IgG4 D312M (antibody, part only; not given: variable domains, not shown: another chain or arm of the molecule) constant: ASTTAPKVFPLASHSAATSGSTVALGCLVSSYFPEPVTVSWNSGALTSGVHTFPSVLQSSGLYSLSSMVTVPASSLKSQTYICNVAHPASSTKVDKKIVIKECNGGCPAECLQVGPSVFIFPPKPKDVLMISRTPTVTCVVVDVGHDFPDVQFNWYVDGVETHTATTEPKQEQFNSTYRVVSVLPIQHKMWLSGKEFKCKVNNKALPAPVERTISKPTGQPREPQVYVLAPHRDELSKNKVSVTCLVKDFYPTDIDIEWKSNGQPEPETKYSTTPAQLDSDGSYFLYSKLTVETNRWQQGTTFTCAVMHEALHNHYTEKSVSKSPGK | 25
3. equine IgG1 T286C (antibody, part only; not given: variable domains, not shown: another chain or arm of the molecule) constant: ASTTAPKVFALAPGCGTTSDSTVALGCLVSGYFPEPVKVSWNSGSLTSGVHTFPSVLQSSGFYSLSSMVTVPASTWTSETYICNVVHAASNFKVDKRIEPIPDNHQKVCDMSKCPKCPAPELLGGPSVFIFPPNPKDTLMITRTPEVTCVVVDVSQENPDVKFNWYMDGVEVRCATTRPKEEQFNSTYRVVSVLRIQHQDWLSGKEFKCKVNNQALPQPIERTITKTKGRSQEPQVYVLAPHPDELSKSKVSVTCLVKDFYPPEINIEWQSNGQPELETKYSTTQAQQDSDGSYFLYSKLSVDRNRWQQGTTFTCGVMHEALHNHYTQKNVSKNPGK | 35.4

Continue with the binder presented below.
# Kd (binder: equine IgG1 D312E (antibody, part only; not given: variable domains, not shown: another chain or arm of the molecule) constant: ASTTAPKVFALAPGCGTTSDSTVALGCLVSGYFPEPVKVSWNSGSLTSGVHTFPSVLQSSGFYSLSSMVTVPASTWTSETYICNVVHAASNFKVDKRIEPIPDNHQKVCDMSKCPKCPAPELLGGPSVFIFPPNPKDTLMITRTPEVTCVVVDVSQENPDVKFNWYMDGVEVRTATTRPKEEQFNSTYRVVSVLRIQHQEWLSGKEFKCKVNNQALPQPIERTITKTKGRSQEPQVYVLAPHPDELSKSKVSVTCLVKDFYPPEINIEWQSNGQPELETKYSTTQAQQDSDGSYFLYSKLSVDRNRWQQGTTFTCGVMHEALHNHYTQKNVSKNPGK ) is 25.2
